Tested on: A549/ATCC NSCLC
PROCEDURE_SUMMARY: NCI-60 one-dose screen, 48 h (100 = growth as untreated, 0 = no growth, -100 = all killed)
RUN_PARAMETERS: 10 µM unless noted
Compounds without any hit were thinned out: in the full panel of roughly 83,000, 20% have a hit.
Threshold check on growth: at or above 60% gives 1 (yes), strictly below gives 0 (no).

Entry O=C1Nc2ccccc2/C1=C/C(=N/c1nnc(-c2ccccc2)s1)c1ccccc1 : is its growth no less than 60%?
1 (yes)

Entry Cc1nn(-c2nc3ccccc3[nH]2)c2c1C(c1ccc3c(c1)OCO3)CC(=O)N2 (stereo unspecified) : is its growth no less than 60%?
0 (no)

Entry Oc1ccccc1/C=N/Nc1ccc2ccccc2n1 : is its growth no less than 60%?
0 (no)

Entry COc1ccc(-c2cn3c(ccc4ccccc43)n2)cc1 : is its growth no less than 60%?
1 (yes)

Entry COc1cnc2c(c1)C(=O)c1c-2n(CCCBr)c(=O)c2cc([N+](=O)[O-])ccc12 : is its growth no less than 60%?
0 (no)

Entry COc1cc2nc3cc([N+](=O)[O-])ccc3c(NCCCNCC(C)(C)O)c2cc1OC : is its growth no less than 60%?
0 (no)

Entry COc1c2ccccc2c(OC)c2[nH]c(=O)ccc12 : is its growth no less than 60%?
0 (no)

Entry CCN(CC)CC(O)c1cc(-c2ccc(Cl)cc2)nc2c(C)c(Cl)ccc12 (stereo unspecified) : is its growth no less than 60%?
0 (no)

Entry CCOC(=O)C(CC)n1c(=O)c2cc(OC)c(OC)cc2c2cnc3[nH]ccc3c21 (stereo unspecified) : is its growth no less than 60%?
1 (yes)

Entry CSc1nc2sc3c(c2c(=O)n1-c1ccc(C(C)C)cc1)CCC(=O)C3 : is its growth no less than 60%?
1 (yes)

Entry Cc1sc2nc3[nH]/c(=C\c4ccc(Cl)cc4)c(=O)n3c(=O)c2c1C : is its growth no less than 60%?
1 (yes)

Entry CNc1nc(C)c(-c2nc(Nc3cccc(S(N)(=O)=O)c3)ncc2F)s1 : is its growth no less than 60%?
0 (no)

Entry CN(C)c1ccc(/C=C(\C#N)c2nc3ccccc3s2)cc1 : is its growth no less than 60%?
1 (yes)

---

System: PC-3 prostate
PROCEDURE_SUMMARY: NCI-60 one-dose screen, 48 h (100 = growth as untreated, 0 = no growth, -100 = all killed)
RUN_PARAMETERS: 10 µM unless noted
About 83,000 compounds went through this panel and 20% of them were active in at least one assay; those are over-represented in the sample as a whole.
Kindly supply the reported growth values for the records listed here.
Return type: number; implicit unit %.

# get_value(readout='growth', item= O=C(Nc1ccc(Nc2cc(Nc3ccccc3)ncn2)cc1)Nc1cc(C(F)(F)F)ccc1F )
55.8

# get_value(readout='growth', item= O=C(/C=C/c1ccc(B(O)O)cc1)/C=C/c1ccc(B(O)O)cc1 )
57.1

# get_value(readout='growth', item= COc1ccc(S(=O)(=O)NCCNc2nccc(-c3c(-c4cccc(N)c4)nc4sccn34)n2)cc1 )
83.6

# get_value(readout='growth', item= C=CCSc1nnc(-c2ccc(C(C)(C)C)cc2)n1-c1cccc(C(F)(F)F)c1 )
16.6

# get_value(readout='growth', item= CCCCN(CCCC)CCC(C)(O)c1cc2ccccc2c2ccccc12 (stereo not given) )
47.5

---

Tested on: HCT-116 colon
PROCEDURE_SUMMARY: NCI-60 one-dose screen, 48 h (100 = growth as untreated, 0 = no growth, -100 = all killed)
RUN_PARAMETERS: 10 µM unless noted
The panel holds about 83,000 compounds, 20% with a hit somewhere; the sample as a whole holds those more often.
The label is Satisfied for growth below 20% and Not satisfied for growth equal to or exceeding 20%.

Answer whether the compound COc1ccc(OCC(=O)Nc2ccc(-c3nc4ccccc4s3)cc2C)cc1 has growth strictly less than 20%
Not satisfied

Answer whether the compound C=C1CCC2C3(C)COC(c4cccc(Cl)c4)OC3CCC2(C)C1/C=C/C1=CCOC1=O (configuration not stated) has growth strictly less than 20%
Not satisfied

Answer whether the compound OC(c1cc(-c2ccccc2)nc2ccc(Cl)cc12)C1CCCCN1 (configuration not stated) has growth strictly less than 20%
Not satisfied

Answer whether the compound C=C1CCC2C3(C)COC(c4ccc(OC)cc4Br)OC3CCC2(C)C1/C=C/C1=CCOC1=O (configuration not stated) has growth strictly less than 20%
Not satisfied

Answer whether the compound C(=N\Nc1ccccn1)/c1ccccn1 has growth strictly less than 20%
Satisfied

Answer whether the compound CCCCCCCCCCCCCCCCNCCC[C@@H](C)[C@H]1CC[C@H]2[C@@H]3[C@H](OCCCN)C[C@@H]4C[C@H](OCCCN)CC[C@]4(C)[C@H]3C[C@H](OCCCN)[C@]12C has growth strictly less than 20%
Satisfied

Answer whether the compound Cc1ccc(Nc2nc(N)nc(Nc3ccc4ccccc4c3)n2)cc1 has growth strictly less than 20%
Not satisfied

Answer whether the compound COc1cc(C#N)cc(OC)c1OCCN(CCOc1c(OC)cc(C#N)cc1OC)S(=O)(=O)c1ccc(C)cc1 has growth strictly less than 20%
Not satisfied

Answer whether the compound O=C1/C(=C/c2ccccc2)CN(CCC(=O)N2C/C(=C\c3ccccc3)C(=O)/C(=C/c3ccccc3)C2)C/C1=C\c1ccccc1 has growth strictly less than 20%
Satisfied

Answer whether the compound Nc1nc2c(c3ncccc13)C(c1cccc(Br)c1)Cc1ncccc1-2 (configuration not stated) has growth strictly less than 20%
Satisfied

Answer whether the compound CN(C)C(=O)c1cc2cnc(Nc3ccc(-c4csc5c(=O)cc(N6CCNCC6)oc45)cc3)nc2n1C1CCCC1 has growth strictly less than 20%
Satisfied

Answer whether the compound COc1ccc2nc(NC(=O)c3cccnc3Nc3cc(OC)c(OC)c(OC)c3)sc2c1 has growth strictly less than 20%
Satisfied

Answer whether the compound O=C(/C=C/c1cc2ccccc2[nH]c1=O)/C=C/c1cc2ccccc2[nH]c1=O has growth strictly less than 20%
Satisfied

Answer whether the compound O=S(=O)(Nc1ccc(Cl)cc1Cl)c1ccc(-c2cnc(C3CC3)o2)cc1 has growth strictly less than 20%
Not satisfied

Answer whether the compound CCOC(=O)c1c2c(n3ccc(NC(=O)CCN4CCOCC4)cc13)C(=O)c1ncccc1C2=O has growth strictly less than 20%
Not satisfied

Answer whether the compound COc1ccc2nc3cc(Cl)ccc3c(N3CCN(c4nccc(Nc5ccc(Cl)cc5)n4)CC3)c2c1 has growth strictly less than 20%
Satisfied

Answer whether the compound COCCOc1ccc(-c2nc3ccc(-c4nc5ccc(N6CCN(C)CC6)cc5[nH]4)cc3[nH]2)cc1 has growth strictly less than 20%
Satisfied

---

Test system: PC-3 prostate
PROCEDURE_SUMMARY: NCI-60 one-dose screen, 48 h (100 = growth as untreated, 0 = no growth, -100 = all killed)
RUN_PARAMETERS: 10 µM unless noted
Method: Growth inhibition of the PC-3 human tumor cell line is measured as a screen for anti-cancer activity. Cells are grown in 96 well plates and exposed to the test compound for 48 hours. Compounds are tested at a single concentration, which is 10^-5 M for most compounds. The reported endpoint is percent growth (GI% or GIPRCNT), where numbers from 0 - 100% represent growth inhibition, and numbers from -100% - 0 represent cell death. For example, a value of 40 represents 60% growth inhibition. […]
About 83,000 compounds went through this panel and 20% of them were active in at least one assay; those are over-represented in the sample as a whole. Activity calls are given as the source filed them. The calls were made as follows: active = growth percent below 10; inactive = the rest.
METRIC: growth

# get_value(readout='growth', item= Nc1cc2nc3ccccc3sc-2cc1=O )
50.8% (inactive)

# get_value(readout='growth', item= CCOC(=O)N1CCN(c2nc(Nc3cc(C)[nH]n3)c3ccccc3n2)CC1 )
57.2% (inactive)

# get_value(readout='growth', item= CN1Cc2c(cc(CN3CCCCC3)n2C)C(c2ccc(Br)cc2)C1 (stereo not given) )
82.9% (inactive)

# get_value(readout='growth', item= NCc1cn2cc(Cl)sc2n1 )
92.3% (inactive)

# get_value(readout='growth', item= O=S(=O)(Nc1ccc(F)c(Cl)c1)c1ccc(-c2cnc(C3CC3)o2)cc1 )
24.9% (inactive)

# get_value(readout='growth', item= COc1cc(C(=O)/C=C/c2c(C)n([O-])c3ccc(C)cc3[n+]2=O)cc(OC)c1OC )
64.8% (inactive)

# get_value(readout='growth', item= COc1ccc(OCC(=O)Nc2ccc(-c3nc4ccccc4s3)cc2C)cc1 )
75.9% (inactive)

# get_value(readout='growth', item= O=[N+]([O-])c1cccc(-c2nc3sccn3c2-c2ccnc(NCCNS(=O)(=O)c3ccc(C(F)(F)F)cc3)n2)c1 )
17% (inactive)

# get_value(readout='growth', item= NC1=CC(=O)C(=O)c2ccccc21 )
91.1% (inactive)

# get_value(readout='growth', item= CN1CCN(Cc2ccc(NC(=O)c3cncc(C#Cc4cnc(N)c5cccnc45)c3)cc2C(F)(F)F)CC1 )
29.3% (inactive)

Measured values drawn from PubChem BioAssay (NCI) for this set.
